assay: self-splicing fitness, log relative to wild type (ln ratio); higher = more splicing; Tetrahymena group I intron in knt gene, E. coli kanamycin selection, DiMSum; sequences stand for … in CUCUCU…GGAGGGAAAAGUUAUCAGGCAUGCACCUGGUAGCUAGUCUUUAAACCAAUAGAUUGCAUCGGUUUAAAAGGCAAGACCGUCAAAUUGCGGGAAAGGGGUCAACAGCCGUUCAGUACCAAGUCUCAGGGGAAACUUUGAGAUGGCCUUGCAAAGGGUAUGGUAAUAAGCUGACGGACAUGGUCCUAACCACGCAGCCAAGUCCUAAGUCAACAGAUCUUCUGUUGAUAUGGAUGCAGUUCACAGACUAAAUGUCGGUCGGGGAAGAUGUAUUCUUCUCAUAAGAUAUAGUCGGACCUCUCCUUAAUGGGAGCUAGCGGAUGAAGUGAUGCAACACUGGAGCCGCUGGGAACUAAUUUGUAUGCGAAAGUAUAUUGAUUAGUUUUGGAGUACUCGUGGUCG; settings: 37 °C;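 note: selection with 25 µg/mL kanamycin versus none on LB agar overnight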
I would appreciate it if you labelled entries true when self-splicing fitness (ln) is -1 or higher, otherwise false.

# sequence_entry, category
measured = [
    ("CUCAAGCAAUAUUACGGUGA", "false"),
    ("CGAAAGCAAUAUUACGGUCC", "true"),
    ("GCCAAGCAAUAUUACGAAUA", "false"),
    ("GACUAGCAAUAUUACGCGCA", "true"),
    ("AGAGAGCAAUAUUACGUUAU", "false"),
]

Determine whether measured self-splicing fitness (ln) meets or exceeds -1 for UAAAAGCAAUAUUACGAAUG
true

Subsequent entry: GCAUAGCAAUAUUACGCUGU
false

Subsequent entry: CCCAAGCAAUAUUACGCGUA
false

Subsequent entry: UUGAAGCAAUAUUACGGUUA
true

Subsequent entry: CGGCAGCAAUAUUACGGAUU
false

Subsequent entry: AAAAAGCAAUAUUACGCAUA
true

Subsequent entry: CAGGAGCAAUAUUACGUACU
false

Subsequent entry: CUUGAGCAAUAUUACGAACC
false

Subsequent entry: UAUGAGCAAUAUUACGCGGA
false
